Target: GST-Bcl-2 (Homo sapiens, UniProt P10415)
Sequence (P10415 whole entry): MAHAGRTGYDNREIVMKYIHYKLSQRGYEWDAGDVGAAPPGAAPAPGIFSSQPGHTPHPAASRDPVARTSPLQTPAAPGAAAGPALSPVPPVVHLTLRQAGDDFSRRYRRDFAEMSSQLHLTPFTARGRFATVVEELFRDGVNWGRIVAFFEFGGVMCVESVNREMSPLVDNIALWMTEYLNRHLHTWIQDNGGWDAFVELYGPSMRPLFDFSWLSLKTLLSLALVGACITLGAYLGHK
Assay: TR-FRET binding assay, GST-Bcl-2 with F-Bak peptide probe
Conditions: TR-FRET Binding Affinity, GST-Bcl-2, F-Bak peptide probe
Measured quantity: pKi
Reminder that pKi means the negative base-10 logarithm of the concentration expressed in mol/L.

As a guide, the following entries are already answered.
| Compound | Tgt | pKi |
| --- | --- | --- |
| CC1(C)CCC(CN2CCN(c3ccc(C(=O)NS(=O)(=O)c4ccc(NCCN5CCNC5=O)c([N+](=O)[O-])c4)c(Oc4ccc5[nH]ccc5c4)c3)CC2)=C(c2ccc(Cl)cc2)C1 [Example 268] | GST-Bcl-2 (Homo sapiens, UniProt P10415) | 10.04 |
| CC(C)(C)c1ccc(CN2CCN(c3ccc(C(=O)NS(=O)(=O)c4ccc(NC5CCN(C6CCOCC6)CC5)c([N+](=O)[O-])c4)c(Oc4ccc5[nH]ccc5c4)c3)CC2)c(-c2ccc(Cl)cc2)c1 [Example 359] | GST-Bcl-2 (Homo sapiens, UniProt P10415) | 7.87 |
| COC1CCN(c2ccc(S(=O)(=O)NC(=O)c3ccc(N4CCN(CC5=C(c6ccc(Cl)cc6)CC(C)(C)CC5)CC4)cc3Oc3ccc4[nH]ccc4c3)cc2[N+](=O)[O-])CC1 [Example 271] | GST-Bcl-2 (Homo sapiens, UniProt P10415) | 8.21 |

Could you tell me which pKi is on file for O=C(NS(=O)(=O)c1ccc(NCC2CCOCC2)c(S(=O)(=O)C(F)(F)F)c1)c1ccc(N2CCN(Cc3cc(OCCCN4CCCCC4)ccc3-c3ccc(Cl)cc3)CC2)cc1Oc1ccccc1 [Example 118] ?
9.11
